Every entry's value here was drawn from PubChem BioAssay AID1159580.

Assay: chemical genetic growth profiling, strain panel (AID 1159580);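 further: tested at 20 µM; growth read once vehicle control cultures reached saturation at 30 °C; 1 = growth at the plate median or of vehicle wells; lower values mean less growth of the strain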
Conditions: S. cerevisiae deletion strains, growth OD, locus YPR119W, strain clb2, active compounds read low
About 2,000 (36%) of roughly 5,500 compounds were called active. Not shown: some 18% with an inconclusive outcome. The list shows a part of the results.
The reader will find reported normalized growth values listed item by item below.
// return just the number, without any unit appended

Worked cases, normalized growth given:
{"compound": "CC(C)CCCC(C)C1CCC2C3CC(=O)[C@H]4C[C@@H](O)CC[C@]4(C)C3CC[C@]12C (stereo not given in full)", "normalized growth": 1}
{"compound": "CN(C)CCCN1c2ccccc2Sc2ccccc21", "normalized growth": 1}
{"compound": "CC(C)CCCC(C)[C@H]1CCC2C3CC[C@@H]4C[C@H](O)CC[C@]4(C)C3CC[C@@]21C (stereo not given in full)", "normalized growth": 1}
{"compound": "CC(C)CCCC(C)[C@H]1CCC2C3CC=C4CC(=O)CC[C@]4(C)C3CC[C@@]21C (stereo not given in full)", "normalized growth": 1}
{"compound": "Nc1ccc(S(=O)(=O)NC(=O)c2ccccc2)cc1", "normalized growth": 1.02}

If you can, please state the reported normalized growth value of CC(C)(C)NCC(O)c1ccc(O)c(CO)c1 (stereo not given) .
1.01

Another compound: CN(C)CCCN1c2ccccc2Sc2ccc(Cl)cc21
1.01

Another compound: CC1(C)CC2C1CC[C@]1(CBr)CCC3C(CC(=O)O)C(=O)O[C@@]32C1 (stereo not given in full)
0.993

Another compound: CCN(CC)CCOC(=O)C1(C2CCCCC2)CCCCC1
0.99

Another compound: CCN(CC)CCOC(=O)C(c1ccccc1)C1CCCCC1 (stereo not given)
0.964

Another compound: CC(C)CCCC(C)C1CCC2C3=CC[C@H]4C[C@@H](O)CC[C@]4(C)C3CC[C@@]21C (stereo not given in full)
0.99

Another compound: CS(=O)(=O)c1ccc([C@@H](O)[C@@H](CO)NC(=O)C(Cl)Cl)cc1
1

Another compound: CC(C)CCCC(C)[C@H]1CCC2C3CC=C4C[C@@H](O)CC[C@]4(C)C3CC[C@@]21C (stereo not given in full)
0.992

Another compound: CC(C)CCCC(C)C1CCC2C3C[C@@H](O)[C@@]4(O)C[C@@H](O)CC[C@]4(C)C3CC[C@]12C (stereo not given in full)
1.02
